meta.source: ChEMBL document CHEMBL1255555

Tested on: J774.A1
Assay protocol: Antiinflammatory activity in mouse J774A1 cells assessed as inhibition of LPS-stimulated TNFalpha stimulation after 4 hrs by ELISA
Assay type: functional, cell-based
Activity calls are given as the source filed them. No cut-off for these calls is given here. Residues, ends and D or L forms follow the SMILES beside them.
Response enum: t (active), f (inactive)

Compound: CC[C@H](C)[C@@H]1NC(=O)[C@@H]2CCCN2C(=O)[C@H](CC(C)C)NC(=O)[C@H](CCSC)NC(=O)[C@H](C)NC(=O)[C@H]([C@@H](C)O)NC(=O)[C@H](CCC(N)=O)NC(=O)[C@@H]2CCCN2C1=O (cyclo(AMLPIPQT))
Category: t
--
Compound: CC[C@@H](C)[C@@H]1NC(=O)[C@@H]2CCCN2C(=O)[C@H](CC(C)C)NC(=O)[C@H](C)NC(=O)CNC(=O)[C@H]([C@@H](C)O)NC(=O)[C@H](CCC(N)=O)NC(=O)[C@@H]2CCCN2C1=O
Category: t
--
Compound: COc1ccc(C[C@@H]2NC(=O)[C@H](Cc3ccc(O)cc3)NC(=O)[C@H](CO)NC(=O)[C@H](CC(C)C)NC(=O)[C@H](C(C)C)NC(=O)CNC(=O)CNC(=O)[C@@H]3CCCN3C2=O)cc1 (cyclo(GGVLSYY(Me)P))
Category: f

Now take the following compound into account.
Challenge: Hi team, can someone confirm the assay call for CC(C)C[C@@H]1NC(=O)[C@H](C(C)C)NC(=O)CNC(=O)[C@H](C)NC(=O)[C@@H]2CCCN2C(=O)[C@H](Cc2ccc(O)cc2)NC(=O)[C@H](Cc2ccc(O)cc2)NC(=O)[C@H](CO)NC1=O (cyclo(AGVLSYYP)) ?
Response given: t
